# Tested on: female imagines of Kanzawa spider mite (Tetranychus kanzawai kishida) which had acquired a strong resistance to chlorfenapyr
# ASSAY METHOD TEXT: Miticidal effect on female imagines of chlorfenapyr-resistant Kanzawa spider mite, leaf disk spray test
# Format: in vivo
# TEST CONTEXT: single test compound; chlorfenapyr-resistant strain
# Protocol: In this experiment, the miticidal effect against female imagines (adults) of Kanzawa spider mite (Tetranychus kanzawai kishida) which are registrant to chlorfenapyr is evaluated. […] A co-toxicity coefficient is calculated by applying Sun and Johnson's formula (J. Econ. Ent., Vol 53, p. 887, […]) which is generally used to determine the degree of synergistic activity. […] The LC50 values of Test Compound A alone and Test Compound B alone and the LC50 value of the (A+B) mixture M is determined. […]
PARAMETER MEASURED: miticidal effect (in words)

>>> test_result("CC(C)OC(=O)C(O)(c1ccc(Br)cc1)c1ccc(Br)cc1 [Phenisobromalate, isopropyl 4,4′-dibromobenzilate]")
"low effects"
>>> test_result("Cc1ccc(N=CN(C)C=Nc2ccc(C)cc2C)c(C)c1")
"low effects"
>>> test_result("OC(c1ccc(Cl)cc1)(c1ccc(Cl)cc1)C(Cl)(Cl)Cl")
"high miticidal effect"
>>> test_result("CCOCCc1ccc(OCCNc2ncnc(CC)c2Cl)c(C)c1C")
"high miticidal effect"
